Test system: FLX1
method description: cell viability z-score within plate (CellTiter-Glo), mean of 3 biological replicates; higher = higher viability relative to plate (less growth inhibition)
condition parameters: 2 µM; time (hr): 120
Where a name gives a salt, the structure may show the parent alone.
Criterion: cell viability z-score within plate strictly under 0.004. Met: Criterion met. Not met: Criterion not met.

Threshold test, cell viability z-score within plate < 0.004: `O=C(O)[C@]1(Cc2cccc(Nc3nccs3)n2)CC[C@@H](Oc2cccc(Cl)c2F)CC1`
Criterion met

Check if cell viability z-score within plate falls below 0.004 for `CCOC(=O)c1cnc2ccc(-c3cncc(NS(=O)(=O)c4ccccc4)c3)cn12` .
Criterion not met

Please indicate whether the reported cell viability z-score within plate of `COc1ccc(CNC(=O)Nc2ncc([N+](=O)[O-])s2)cc1` is strictly below 0.004.
Criterion not met

Please let me know if `Cc1cn(-c2cc(NC(=O)c3ccc(C)c(Nc4nccc(-c5cccnc5)n4)c3)cc(C(F)(F)F)c2)cn1` shows cell viability z-score within plate below 0.004.
Criterion not met

Find out if reported cell viability z-score within plate for `CC(C)NC[C@@H](C(=O)N1CCN(c2ncnc3c2[C@H](C)C[C@H]3O)CC1)c1ccc(Cl)cc1` is less than 0.004
Criterion not met

I wonder whether `OCCn1cc(-c2cnc3nnn(Cc4ccc5ncccc5c4)c3n2)cn1` has cell viability z-score within plate below 0.004. Can you tell?
Criterion not met

Strictly below 0.004 in cell viability z-score within plate? `Cc1ccc(S(=O)(=O)/C=C/C#N)cc1`
Criterion not met

Report whether reported cell viability z-score within plate is lower than 0.004 (strictly) for `Cc1ccc(C(=O)Nc2cccc(C(F)(F)F)c2)cc1Nc1nc(-c2cccnc2)nc2c1cnn2C`
Criterion met

For this compound, is cell viability z-score within plate lower than 0.004? `O=C(Nc1c[nH]nc1-c1nc2ccc(CN3CCOCC3)cc2[nH]1)NC1CC1`
Criterion not met

Could you please tell me whether cell viability z-score within plate recorded for `CCC(=O)Nc1cccc(Oc2nc(Nc3ccc(N4CCN(C)CC4)cc3OC)ncc2Cl)c1` is less than 0.004?
Criterion not met

Record `COCCOc1ccc2c(c1)ncn2-c1ccc2cccc(N3CCC(N)CC3)c2n1` : is its cell viability z-score within plate strictly below 0.004?
Criterion not met

Bench note: check whether `Cc1[nH]c(/C=C2\C(=O)Nc3ccc(S(=O)(=O)Cc4c(Cl)cccc4Cl)cc32)c(C)c1C(=O)N1CCC[C@@H]1CN1CCCC1` shows cell viability z-score within plate below 0.004
Criterion met

Decide: cell viability z-score within plate of `O=C(NCc1ccccc1)c1csc(Nc2ccncn2)n1` strictly below 0.004?
Criterion met

Threshold test, cell viability z-score within plate < 0.004: `COc1cc2ncnc(Nc3ccc(O)c(Br)c3)c2cc1OC`
Criterion not met

# check: cell viability z-score within plate < 0.004 for `CCc1cncnc1N1CCN(Cc2nc3ccc(C(F)(F)F)cc3[nH]2)CC1`
Criterion not met

# TODO verify cell viability z-score within plate < 0.004 strictly for this compound: `C[C@]1(O)C[C@@H](c2nc(-c3ccc4ccc(-c5ccccc5)nc4c3)c3c(N)nccn32)C1`
Criterion not met

Here's an entry: `C=CC(=O)Nc1cccc(Oc2nc(Nc3ccc(N4CCN(C)CC4)cc3)ncc2Cl)c1` . Is its cell viability z-score within plate below 0.004?
Criterion met

Does this compound meet the criterion cell viability z-score within plate < 0.004? `CC[C@@H]1C(=O)N(C)c2cnc(Nc3ccc(C(=O)N[C@H]4CC[C@H](N5CCN(CC6CC6)CC5)CC4)cc3OC)nc2N1C(C)C`
Criterion met

cell viability z-score within plate strictly < 0.004 for this compound? COc1cc2nccc(Oc3ccc(NC(=O)C4(C(=O)Nc5ccc(F)cc5)CC4)cc3)c2cc1OC [Cabozantinib malate (XL184)]
Criterion not met

Is 0.004 strictly greater than the compound's reported cell viability z-score within plate? compound: N=C(N)NC(=N)NCCc1ccccc1 [Phenformin HCl]
Criterion not met

Hi there! Is cell viability z-score within plate for `C[C@@H](Oc1cc(-c2cnn(C3CCNCC3)c2)cnc1N)c1c(Cl)ccc(F)c1Cl` below 0.004, do you know?
Criterion not met

Identify whether the compound `O=C1Nc2ccc(I)cc2/C1=C/c1cc(Br)c(O)c(Br)c1` records cell viability z-score within plate below 0.004.
Criterion not met

Confirm or reject: cell viability z-score within plate of CN1CCN(C2CCN(C(=O)Nc3cc(Oc4ccc(NC(=O)C5(C(=O)Nc6ccc(F)cc6)CC5)c(F)c4)ccn3)CC2)CC1 [Golvatinib (E7050)] lies strictly below 0.004
Criterion not met

Is cell viability z-score within plate strictly under 0.004 for the entry `O=C(c1cccc(Cl)c1F)N1CCN(Cc2cccc(Nc3nccs3)n2)CC1` ?
Criterion met

Hello, I'm reviewing records and need to know if cell viability z-score within plate of `Cc1ccc(Nc2nccc(N(C)c3ccc4c(C)n(C)nc4c3)n2)cc1S(N)(=O)=O` is below 0.004. Could you check?
Criterion met

Could you please tell me whether cell viability z-score within plate recorded for `O=C1NC(=O)/C(=C/c2ccc(-c3ccc(F)cc3O)o2)S1` is less than 0.004?
Criterion not met

Field: below-cutoff. Rule: recorded cell viability z-score within plate strictly less than 0.004. Subject: `COc1cc(N2CCC(N)CC2)ccc1Nc1ncc(Cl)c(-c2c[nH]c3ccccc23)n1`
Criterion met

Dear colleague, could you confirm whether cell viability z-score within plate of `Cn1ncc(Cl)c1-c1cc(C(=O)N[C@H](CN)Cc2ccc(F)c(F)c2)oc1Cl` falls below 0.004? Thanks.
Criterion met

Say whether its cell viability z-score within plate is strictly beneath 0.004. Entry: `CCCCOc1c(C(=O)c2c(F)cc(C)cc2F)c[nH]c2nncc1-2`
Criterion met

is_below(cell viability z-score within plate, 0.004) for O=C(Nc1cccc(Cl)c1)Nc1ncc(CCNc2ncnc3ccsc23)s1 [SNS-314 Mesylate] ?
Criterion met

Problem: For the compound `Cn1cnc2c(F)c(Nc3ccc(Br)cc3Cl)c(C(=O)NOCCO)cc21` , is cell viability z-score within plate under 0.004?
Criterion met

I'd appreciate it if you could check whether `O=C(Cc1ccc(-c2ccc(OCCN3CCOCC3)cc2)cn1)NCc1ccccc1` has cell viability z-score within plate smaller than 0.004.
Criterion not met

Is the reported cell viability z-score within plate for `O=c1cc(N2CCOCC2)oc2c(-c3ccccc3)cccc12` strictly below 0.004?
Criterion not met

Quick check: cell viability z-score within plate of `C=CC(=O)N1CCC[C@@H](n2nc(-c3ccc(Oc4ccccc4)cc3)c3c(N)ncnc32)C1` under 0.004?
Criterion not met

Field: below-cutoff. Rule: recorded cell viability z-score within plate strictly less than 0.004. Subject: `COc1cccc(-c2cc(=O)c3ccccc3o2)c1N`
Criterion not met

###

System: FLX1
method description: cell viability z-score within plate (CellTiter-Glo), mean of 3 biological replicates; higher = higher viability relative to plate (less growth inhibition)
condition parameters: 2 µM; time (hr): 120
Give measured cell viability z-score within plate for each item. Keep answers brief.

Name the recorded cell viability z-score within plate of the molecule listed here: `CCS(=O)(=O)c1cccc(-c2cc(C(=O)NC3CCN(C)CC3)c(C)c3[nH]c4ncc(C)cc4c23)c1`
0.278

Please give the documented cell viability z-score within plate of `Cn1cc(C2=C(c3ccc(Cl)cc3Cl)C(=O)NC2=O)c2ccccc21`
-1.2

Consider the molecule `Cc1cc2c(F)c(Oc3ncnn4cc(OC[C@@H](C)OC(=O)[C@H](C)N)c(C)c34)ccc2[nH]1` and give its recorded cell viability z-score within plate.
0.531

Indicate its recorded cell viability z-score within plate; the molecule in question is CNC(=O)c1cc(COc2nnc(Nc3ccc(Cl)cc3)c3ccoc23)ccn1 [Telatinib]
-1.65

Report cell viability z-score within plate, nothing else, for this molecule: `NC(=O)Nc1sc(-c2ccc(F)cc2)cc1C(N)=O`
-0.156

Indicate its recorded cell viability z-score within plate; the molecule in question is `Cc1ccc(NC(=O)c2cccc(C(C)(C)C#N)c2)cc1Nc1ccc2ncn(C)c(=O)c2c1`
-1.84

Identify cell viability z-score within plate associated with the molecule `NC(=O)Nc1cc(-c2cccc(F)c2)sc1C(=O)N[C@H]1CCCNC1`
0.408

Query cell viability z-score within plate for CNC(=O)c1cc(Oc2ccc(NC(=O)Nc3cc(C(C)(C)C)nn3-c3ccc4ncccc4c3)c(F)c2)ccn1 [Rebastinib (DCC-2036)]
0.382

Quickly give me recorded cell viability z-score within plate for N#CC1(c2ccc(NC(=O)c3cccnc3NCc3ccncc3)cc2)CCCC1 [Apatinib]
0.121

The measured values listed here are drawn from the supplement of paper PMC9925115.
